Data provenance is patent US7094798B1.

Study System: PKC contained in a rat brain preparation
Construct: Enzyme was prepared from a preparation of rat brain (Promega) 0.5 μg diluted with 1.6 ml of 10 mM Hepes buffer pH 7.5
Assay Details: Protein Kinase C (PKC) assay
Assay Conditions: histone H1 substrate
Reported Endpoint: IC50 (µM)

Worked set:
[[record]]
compound = "CN(C)CCNC(=O)CCn1c2ccc(O)cc2c2c3c(c(-c4ccccc4)cc21)C(=O)NC3=O"
reported_endpoint = "IC50"
units_label = "µM"
readout_value = 0.171

[[record]]
compound = "O=C(O)CCn1c2ccc(O)cc2c2c3c(c(-c4ccccc4Cl)cc21)C(=O)NC3=O"
reported_endpoint = "IC50"
units_label = "µM"
readout_value = 1.5

[[record]]
compound = "O=C1NC(=O)c2c1c(-c1ccccc1Cl)cc1c2c2cc(O)ccc2n1CCCO"
reported_endpoint = "IC50"
units_label = "µM"
readout_value = 1.49


(a) COc1ccc2[nH]c3c(c2c1)C1C(=O)NC(=O)C1C(c1ccccc1Cl)C3 (mixture of isomers)
(b) O=C1NC(=O)c2c1c(-c1c(Cl)cccc1Cl)cc1c2c2cc(O)ccc2n1CCO
[ask] Kindly compare a with b and tell me which has the lower IC50 figure. Give the label of your selection.
[reply] a
